# System: MOLT-4 leukemia
# TEST_DESCRIPTION: NCI-60 one-dose screen, 48 h (100 = growth as untreated, 0 = no growth, -100 = all killed)
# STATED_CONDITIONS: 10 µM unless noted
Compounds without any hit were thinned out: in the full panel of roughly 83,000, 20% have a hit.
MEASUREMENT_LABEL: growth (%)
Record the value in %, omitting the unit from your answer.

// query Record request: growth value, item Cc1ccc(-c2csc(NC(=O)CCCCl)n2)cc1
// result 79.1

// query Record request: growth value, item O=[N+]([O-])c1cc(Cl)c2[nH]c3c(Cl)cc([N+](=O)[O-])cc3c2c1
// result -41.8

// query Record request: growth value, item COc1ccc(-n2c(-c3ccccc3)c(-c3ccccc3)c3c(SCC(=O)N/N=C/c4ccc(Cl)cc4)ncnc32)cc1
// result 97

// query Record request: growth value, item O=S(=O)(NCCNc1nccc(-c2c(-c3ccc(O)cc3)nc3sccn23)n1)c1cccc2ccccc12
// result 87.6

// query Record request: growth value, item O=C(Nc1ccc2c(c1)OCCO2)C(=O)c1c[nH]c2ccccc12
// result 16.8

// query Record request: growth value, item Cc1ccc(N2CCN(C(C)C(N)=O)CC2)cc1 (centres undefined)
// result 117

// query Record request: growth value, item CCOC(=O)c1ccc2c(c1)nc(-c1ccc(OCc3ccccc3)c(OC)c1)n2-c1cc(C(C)(C)C)[nH]n1
// result 43.4

// query Record request: growth value, item CCCCCCCCCCCCNC(=O)[C@H]1CSC(c2cc(Br)cs2)N1 (some centres undefined)
// result -59.8

// query Record request: growth value, item Clc1cc2c(nn1)Nc1ccccc1S2
// result 96.3
